Catalogue of compounds with associated composite z-score
target entity: Fibroblast growth factor 10 (Homo sapiens) (UniProt O15520)
Sequence (O15520 whole entry, looked up): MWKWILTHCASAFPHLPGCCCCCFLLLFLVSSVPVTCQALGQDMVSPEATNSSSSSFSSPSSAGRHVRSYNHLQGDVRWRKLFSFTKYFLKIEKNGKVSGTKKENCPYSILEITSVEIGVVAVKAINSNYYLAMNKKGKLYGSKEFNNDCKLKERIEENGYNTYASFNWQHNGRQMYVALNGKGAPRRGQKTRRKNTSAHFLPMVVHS
method notes: FGF10 binders on small-molecule microarrays, primary screen, biochemical, small-molecule microarray, 635 nm fluorescence (AID 1102)
study conditions: FGF10 binding, fluorescence 635 nm, higher = more signal
Please give the numeric answer without any surrounding text.

[
  {
    "compound": "COC(=O)c1nc2oc1CC[C@@H](CO)NC(=O)N(C)Cc1cnnn1C[C@H](Cc1ccccc1)NC2=O",
    "parameter": "composite z-score",
    "observed value": -0.0412
  },
  {
    "compound": "CN(C)CCCNC(=O)[C@@]1(C)c2ccccc2C(=O)N(Cc2ccccc2)[C@H]1c1ccc(CO)cc1",
    "parameter": "composite z-score",
    "observed value": -0.476
  },
  {
    "compound": "COC(=O)c1c2oc(c1C(=O)OC)C(=O)N(Cc1ccccc1)Cc1cn(nn1)C[C@H](Cc1ccccc1)NC(=O)N[C@H](CO)CC2",
    "parameter": "composite z-score",
    "observed value": 0.247
  },
  {
    "compound": "COC(=O)[C@@]1(Cc2ccc(OC)cc2)[C@H]2c3cc(C(=O)N(C)C)n(C[C@H](O)CO)c3C[C@H]2CN1C(=O)c1ccccc1",
    "parameter": "composite z-score",
    "observed value": 0.376
  }
]

Problem: # lookup: Fibroblast growth factor 10 (Homo sapiens) (UniProt O15520) composite z-score, key = CC(CO)N1C(=O)[C@@H]2[C@H]3C(=O)OCC=C[C@H]3OC23C=CCN(Cc2ccccc2)C(=O)[C@@H]13 (stereo partly drawn)
Result: -0.49

Problem: # lookup: Fibroblast growth factor 10 (Homo sapiens) (UniProt O15520) composite z-score, key = CCOC(=O)C[C@H]1[C@H](OC(=O)c2cc3ccccc3oc2=O)[C@@H](NC(=O)c2ccc(-c3ccccc3)cc2)c2cc(OCCCO)ccc2N1C(=O)c1ccc2ccccc2n1
Result: 0.93

Problem: # lookup: Fibroblast growth factor 10 (Homo sapiens) (UniProt O15520) composite z-score, key = COc1ccc(CN(C2=CC[C@@]3(C(N)=O)C(=O)C(Cl)=C(Cl)C(=O)[C@@]3(C#N)C2)S(=O)(=O)c2ccc(Br)cc2)cc1
Result: 0.0024

Problem: # lookup: Fibroblast growth factor 10 (Homo sapiens) (UniProt O15520) composite z-score, key = O=C1O[C@@H](c2ccccc2)[C@@H](c2ccccc2)N2[C@@H](c3ccc(O)cc3)[C@]3(C(=O)Nc4ccc(C#CC5(O)CCCCCC5)cc43)[C@@H](C(=O)NC[C@H](O)c3ccccc3)[C@H]12
Result: -0.174

Problem: # lookup: Fibroblast growth factor 10 (Homo sapiens) (UniProt O15520) composite z-score, key = C=CCOC(=O)[C@H]1[C@@H]2C(=O)O[C@@H](c3ccccc3)[C@@H](c3ccccc3)N2[C@@H](c2ccc(OCCOC(=O)[C@@H]3C[C@@H]4C(=O)N[C@@H](CCCCN(C)C)C(=O)N4[C@@H]3c3ccc(O)cc3)cc2)[C@]12C(=O)Nc1ccccc12
Result: 1.03

Problem: # lookup: Fibroblast growth factor 10 (Homo sapiens) (UniProt O15520) composite z-score, key = Cc1cc(C)cc(N2C(=O)CSC2c2cccc([N+](=O)[O-])c2)c1 (stereo not drawn)
Result: 1.15

Where do the numbers come from? From PubChem BioAssay.
